- TARGET OR TEST SYSTEM: HLA-B*15:09
- ASSAY PROTOCOL: IEDB peptide-MHC binding, purified MHC/direct/fluorescence; filed as Kd, often an IC50 or EC50 that approximates it; bounds were set here for any values at or beyond the usual limits of such assays
- TEST PARAMETERS: source organism: Campylobacter jejuni subsp. jejuni CG8486
pKd: −log10 of the molar value.
ASSAY READOUT: pKd

Identify the reported pKd for the following entry. `WFGHLASDW`
≤ 4.70

----------
- TARGET OR TEST SYSTEM: HLA-A*02:01
- ASSAY PROTOCOL: IEDB peptide-MHC binding, purified MHC/competitive/fluorescence; filed as Kd, often an IC50 or EC50 that approximates it; bounds were set here for any values at or beyond the usual limits of such assays
- TEST PARAMETERS: source organism: Vibrio parahaemolyticus K5030
ASSAY READOUT: Kd (nM)
Only the number, expressed in nM, is required.

Identify the reported Kd for the following entry. `LQNFCQHLV`
2.4

----------
- TARGET OR TEST SYSTEM: HLA-B*27:05
- ASSAY PROTOCOL: IEDB peptide-MHC binding, purified MHC/direct/fluorescence; filed as Kd, often an IC50 or EC50 that approximates it; bounds were set here for any values at or beyond the usual limits of such assays
- TEST PARAMETERS: source organism: Giardia lamblia ATCC 50803
pKd: −log10 of the molar value.
ASSAY READOUT: pKd

In the examples that follow, each entry is paired with its recorded pKd.
INSERT INTO assay_data (monomer_sequence, data_value) VALUES
  ('RTDPVIDNI', '≤ 4.70'),
  ('YLDMVLAFL', '≤ 4.70'),
  ('DEKPKVMEG', '≤ 4.70');

Identify the reported pKd for the following entry. `KVGVYKMHK`
≤ 4.70

----------
- TARGET OR TEST SYSTEM: HLA-A*26:03
- ASSAY PROTOCOL: IEDB peptide-MHC binding, purified MHC/direct/fluorescence; filed as Kd, often an IC50 or EC50 that approximates it; bounds were set here for any values at or beyond the usual limits of such assays
- TEST PARAMETERS: source organism: Variola virus
ASSAY READOUT: Kd

Identify the reported Kd for the following entry. `ATNDGLIKK`
≥ 20 µM

----------
- TARGET OR TEST SYSTEM: HLA-B*08:01
- ASSAY PROTOCOL: IEDB peptide-MHC binding, purified MHC/direct/fluorescence; filed as Kd, often an IC50 or EC50 that approximates it; bounds were set here for any values at or beyond the usual limits of such assays
- TEST PARAMETERS: source organism: Toxoplasma gondii
pKd: −log10 of the molar value.
ASSAY READOUT: pKd

Identify the reported pKd for the following entry. `AYMDRKSFK`
≤ 4.70

----------
- TARGET OR TEST SYSTEM: HLA-B*18:01
- ASSAY PROTOCOL: IEDB peptide-MHC binding, purified MHC/competitive/radioactivity; filed as Kd, often an IC50 or EC50 that approximates it; bounds were set here for any values at or beyond the usual limits of such assays
- TEST PARAMETERS: source organism: Mammarenavirus guanaritoense
ASSAY READOUT: Kd
State the result as a value with its unit after it.

Name the value of Kd reported for `GEQVDLGPVL` when tested on HLA-B*18:01.
12.1 µM

----------
- TARGET OR TEST SYSTEM: HLA-B*15:01
- ASSAY PROTOCOL: IEDB peptide-MHC binding, purified MHC/direct/fluorescence; filed as Kd, often an IC50 or EC50 that approximates it; bounds were set here for any values at or beyond the usual limits of such assays
- TEST PARAMETERS: source organism: Salmonella enterica subsp. enterica serovar Typhimurium
ASSAY READOUT: Kd

Identify the reported Kd for the following entry. `YSDIFNNVL`
≥ 20 µM

----------
- TARGET OR TEST SYSTEM: HLA-A*33:01
- ASSAY PROTOCOL: IEDB peptide-MHC binding, purified MHC/competitive/radioactivity; filed as Kd, often an IC50 or EC50 that approximates it; bounds were set here for any values at or beyond the usual limits of such assays
- TEST PARAMETERS: source organism: Vaccinia virus WR
Measured pKd accompanies every entry in the list below.
Please keep in mind that pKd is minus log10 of the molar concentration; only the number is needed.

In the examples that follow, each entry is paired with its recorded pKd.
INSERT INTO measurements (monomer_sequence, target_or_test_system, data_value) VALUES
  ('DIFVSLVKK', 'HLA-A*33:01', 7.27),
  ('QTQTYNIGK', 'HLA-A*33:01', 5.58);

Identify the reported pKd for the following entry. `DLVKSSFVKK`
6.55

Identify the reported pKd for the following entry. `LTQIFEVYWY`
5.90

Identify the reported pKd for the following entry. `CTFMIITSTK`
5.91

Identify the reported pKd for the following entry. `IVTFRERYSY`
4.84

Identify the reported pKd for the following entry. `CYLDTNIKM`
4.96

Identify the reported pKd for the following entry. `EACYIYKSGK`
4.95

Identify the reported pKd for the following entry. `DIETAIRAGY`
5.17

Identify the reported pKd for the following entry. `FLELKRGIY`
5.34

----------
Measured Kd accompanies every entry in the list below.
- TARGET OR TEST SYSTEM: HLA-B*58:01
- ASSAY PROTOCOL: IEDB peptide-MHC binding, purified MHC/direct/fluorescence; filed as Kd, often an IC50 or EC50 that approximates it; bounds were set here for any values at or beyond the usual limits of such assays
- TEST PARAMETERS: source organism: Vibrio vulnificus YJ016

INSERT INTO assay_data (monomer_sequence, data_value) VALUES
  ('WHQARFEEL', '≥ 20 µM');

API: the following record is the query input.
Identify the reported Kd for the following entry. `GWPDNYCEW`
≥ 20 µM

----------
- TARGET OR TEST SYSTEM: HLA-B*57:01
- ASSAY PROTOCOL: IEDB peptide-MHC binding, purified MHC/direct/fluorescence; filed as Kd, often an IC50 or EC50 that approximates it; bounds were set here for any values at or beyond the usual limits of such assays
- TEST PARAMETERS: source organism: Campylobacter jejuni
ASSAY READOUT: Kd

Name the value of Kd reported for `WFGHLASDW` when tested on HLA-B*57:01.
≥ 20 µM

----------
- TARGET OR TEST SYSTEM: HLA-A*23:01
- ASSAY PROTOCOL: IEDB peptide-MHC binding, purified MHC/competitive/radioactivity; filed as Kd, often an IC50 or EC50 that approximates it; bounds were set here for any values at or beyond the usual limits of such assays
- TEST PARAMETERS: source organism: Lassa virus GA391
pKd: −log10 of the molar value.
ASSAY READOUT: pKd

Name the value of pKd reported for `YCNYSRYWY` when tested on HLA-A*23:01.
≤ 4.43

----------
- TARGET OR TEST SYSTEM: HLA-B*45:01
- ASSAY PROTOCOL: IEDB peptide-MHC binding, purified MHC/competitive/radioactivity; filed as Kd, often an IC50 or EC50 that approximates it; bounds were set here for any values at or beyond the usual limits of such assays
- TEST PARAMETERS: source organism: Mammarenavirus juninense
ASSAY READOUT: Kd

Identify the reported Kd for the following entry. `PELELNVDAM`
≥ 70 µM

----------
- TARGET OR TEST SYSTEM: HLA-A*11:01
- ASSAY PROTOCOL: IEDB peptide-MHC binding, purified MHC/competitive/radioactivity; filed as Kd, often an IC50 or EC50 that approximates it; bounds were set here for any values at or beyond the usual limits of such assays
- TEST PARAMETERS: source organism: Vaccinia virus Copenhagen
ASSAY READOUT: pKd
Please keep in mind that pKd is minus log10 of the molar concentration; only the number is needed.

In the examples that follow, each entry is paired with its recorded pKd.
INSERT INTO assay_data (monomer_sequence, target_or_test_system, data_value) VALUES
  ('TLFIDRGSIK', 'HLA-A*11:01', 7.49),
  ('CQLMYALEPR', 'HLA-A*11:01', 7.41);

API: the following record is the query input.
Identify the reported pKd for the following entry. `QLMYALEPR`
5.61

----------
- TARGET OR TEST SYSTEM: HLA-B*18:01
- ASSAY PROTOCOL: IEDB peptide-MHC binding, purified MHC/direct/fluorescence; filed as Kd, often an IC50 or EC50 that approximates it; bounds were set here for any values at or beyond the usual limits of such assays
- TEST PARAMETERS: source organism: dengue virus type 1
ASSAY READOUT: Kd (µM)
Only the number, expressed in µM, is required.

Identify the reported Kd for the following entry. `SEHTGREIV`
2.04

Where these numbers come from: the Immune Epitope Database (IEDB)
